- System: Aspergillus fumigatus
- test description: Antifungal activity against Aspergillus fumigatus assessed as lowest dose required to total inhibition of fungal growth
- Type: functional
Catalogue of GI readings, one per entry.

>  <molecule>
Fc1ccc(OCCCC(Cn2ccnc2)c2ccc(Cl)cc2Cl)cc1.O=C(O)C(=O)O (stereo not given)

>  <measurement>
100 µg/mL

$$$$
>  <molecule>
Clc1ccc(OCC(Cn2ccnc2)c2ccc(Cl)cc2Cl)cc1.O=[N+]([O-])O (stereo not given)

>  <measurement>
10 µg/mL

$$$$
>  <molecule>
Clc1ccc(C(CCCOc2ccc(Br)cc2)Cn2ccnc2)c(Cl)c1.O=C(O)C(=O)O (stereo not given)

>  <measurement>
>100 µg/mL

$$$$
>  <molecule>
Clc1ccc(C(COc2ccccc2Cl)Cn2ccnc2)cc1.O=[N+]([O-])O (stereo not given)

>  <measurement>
>100 µg/mL

$$$$
>  <molecule>
Clc1ccc(OCC(Cn2ccnc2)c2ccc(Cl)cc2Cl)c(Cl)c1.O=[N+]([O-])O (stereo not given)

>  <measurement>
>100 µg/mL

$$$$

Measured GI, Clc1ccc(C(CCOc2ccccc2Cl)Cn2ccnc2)c(Cl)c1.O=C(O)C(=O)O (stereo not given) : >100 µg/mL

Measured GI, Clc1ccc(C(COc2ccc(Br)cc2)Cn2ccnc2)c(Cl)c1.O=[N+]([O-])O (stereo not given) : 100 µg/mL

Measured GI, Clc1ccc(C(COc2ccc(Cl)cc2Cl)Cn2ccnc2)cc1.O=[N+]([O-])O (stereo not given) : 100 µg/mL

Measured GI, Clc1ccc(C(CCOc2ccc(Br)cc2)Cn2ccnc2)c(Cl)c1.O=[N+]([O-])O (stereo not given) : 100 µg/mL

Measured GI, Clc1ccc(C(CCOc2ccccc2)Cn2ccnc2)c(Cl)c1.O=C(O)C(=O)O (stereo not given) : 100 µg/mL

Measured GI, Clc1ccc(C(CCCOc2ccccc2)Cn2ccnc2)c(Cl)c1.O=C(O)C(=O)O (stereo not given) : 10 µg/mL

Measured GI, COc1ccc(OCCC(Cn2ccnc2)c2ccc(Cl)cc2Cl)cc1.O=[N+]([O-])O (stereo not given) : 100 µg/mL

###

- Test system: Saprolegnia
- test description: Antifungal activity against Saprolegnia species assessed as lowest dose required to total inhibition of fungal growth
- Assay type: functional
test readout: GI (µg/mL)
The figure you give is taken to be in µg/mL; do not add the unit.

>  <compound>
Clc1ccc(C(CCCOc2ccccc2)Cn2ccnc2)c(Cl)c1.O=C(O)C(=O)O (stereo not given)

>  <unit spec>
µg/mL

>  <GI>
10

$$$$

Next, consider the following compound.
Measured GI, Clc1ccc(OCCCC(Cn2ccnc2)c2ccc(Cl)cc2Cl)cc1.O=C(O)C(=O)O (stereo not given) : 10

###

- System: Candida albicans
- test description: Antifungal activity against Candida albicans infected in guinea pig at 10 mg/kg, po qd
- Assay type: functional, organism-based
- Parameters: dose 10 mg/kg
Calls of active or inactive are those of the source. No cut-off for these calls is given here.
// one of active, inactive, no free text

>  <molecule>
Clc1ccc(C(CCOc2ccccc2)Cn2ccnc2)c(Cl)c1.O=C(O)C(=O)O (stereo unspecified)

>  <target under test>
Candida albicans

>  <category label>
inactive

$$$$
>  <molecule>
Clc1ccc(OCCCC(Cn2ccnc2)c2ccc(Cl)cc2Cl)cc1.O=C(O)C(=O)O (stereo unspecified)

>  <target under test>
Candida albicans

>  <category label>
inactive

$$$$
>  <molecule>
Clc1ccc(C(CCOc2ccccc2Cl)Cn2ccnc2)c(Cl)c1.O=C(O)C(=O)O (stereo unspecified)

>  <target under test>
Candida albicans

>  <category label>
inactive

$$$$
>  <molecule>
Clc1ccc(OCCC(Cn2ccnc2)c2ccc(Cl)cc2Cl)c(Cl)c1.O=C(O)C(=O)O (stereo unspecified)

>  <target under test>
Candida albicans

>  <category label>
active

$$$$

INPUT: What is the recorded call for this molecule in the test? Clc1ccc(C(CCCOc2ccc(Br)cc2)Cn2ccnc2)c(Cl)c1.O=C(O)C(=O)O (stereo unspecified)
OUTPUT: inactive

INPUT: What is the recorded call for this molecule in the test? Fc1ccc(OCCC(Cn2ccnc2)c2ccc(Cl)cc2Cl)cc1.O=C(O)C(=O)O (stereo unspecified)
OUTPUT: active
